system: Botulinum neurotoxin type F light chain protease (Clostridium botulinum); experiment: Botulinum neurotoxin type F light chain protease inhibition, multiplex microsphere flow cytometry, validation set (AID 588459); settings: multiplex microsphere protease substrate cleavage assay, at 10 µM, stronger effect = higher value
Calls of active or inactive are those of the source. No rule for the calls is given here.
measurement-label: inhibition

compound: COc1ccc2oc(=O)c(C(=O)Nc3ccccc3-c3ccccc3)cc2c1
inhibition: 3.1% (inactive)
//
compound: CC1CCN(C(=O)Oc2ccccc2)CC1
inhibition: -2.4% (inactive)
//
compound: CC12CCC3C(CC=C4CC(O)CCC43C)C1C/C(=C\c1cccc(F)c1)C2=O (stereo unspecified)
inhibition: -0.7% (inactive)
//
compound: CC(C)C(=O)Nc1ccc2c3c(cccc13)CC2
inhibition: 1% (inactive)
//
compound: Cc1cnc(C(=O)N2CCCC(C(=O)c3ccc(Cl)cc3C)C2)cn1 (stereo unspecified)
inhibition: 1.4% (inactive)

Please turn your attention to the following entry.
Q: Which inhibition is reported with Botulinum neurotoxin type F light chain protease (Clostridium botulinum) for this entry: COc1ccc(C2CC(c3c(O)cc(C)oc3=O)=NCCS2)c(OC)c1 (stereo unspecified) ?
Ans: 4.5% (inactive)

---

assay: inhibitors of CD8+ T cell-vesicle binding, pilot screen, LFA-1/ICAM-1 modulator project, MLPCN validation set, flow cytometry (AID 2523); details: 2C mouse CD8+ T cells, at 7 µM, stronger effect = lower value; measured here: CD8+/vesicle+ event percentage
measurement-label: double positive events (%)
Quick reminder: number only, in %, skip the unit.

Q: Tell me the measured double positive events of Cc1cccc(C)c1NC1=NCCCS1 , please.
Ans: 62.8

Q: Dear colleague, I am looking for the recorded double positive events of the following molecule: C[C@H](O)[C@H]1CC[C@H]2[C@@H]3CCC4=CC(=O)CC[C@]4(C)[C@H]3CC[C@]12C
Ans: 61

Q: Form field: reported double positive events of c1ccc2c(c1)OCC(C1=NCCN1)O2 (stereo unspecified)
Ans: 56.2

Q: Data request, read-out double positive events, for Fc1ccc(C(OCCN2CCCC2)c2ccc(Br)cc2)cc1 (stereo unspecified)
Ans: 69.4

---

assay: AGP1-GFP expression modulators, hit retest, confirmation, cell-based, flow cytometry, S. cerevisiae, cherry picks (AID 2273);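 also: median GFP channel fluorescence over the whole cell population gate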; details: S. cerevisiae AGP1-GFP strain, 3 h, at 10 µM
The following compounds are shown together with reported GFP response, % of DMSO values.
// note: answer is a bare numeric in %

compound: C#C[C@]1(O)CC[C@H]2[C@@H]3CCC4=CC(=O)CC[C@]4(C)[C@H]3CC[C@@]21C
output-unit: %
GFP response, % of DMSO: 95.4

compound: CC1(C)OC(c2ccccc2)=C/C(=C/C=C2C(=O)NC(=S)NC2=O)O1
output-unit: %
GFP response, % of DMSO: 92.3

compound: O=c1oc2ccccc2c(O)c1[C@H]1c2ccc(O)cc2Oc2c1c(=O)oc1ccccc21
output-unit: %
GFP response, % of DMSO: 90.4

compound: C[C@H](O)[C@H]1CC[C@H]2[C@@H]3CCC4=CC(=O)CC[C@]4(C)[C@H]3CC[C@]12C
output-unit: %
GFP response, % of DMSO: 93.7

compound: O=c1[nH]c(=O)n(Cc2ccc(F)cc2)c(O)c1C=NCCN1CCCCC1
output-unit: %
GFP response, % of DMSO: 102

Q: Fill in the blank: the reported GFP response, % of DMSO of O=C1NC(=O)N(c2ccccc2)C(=O)/C1=C\c1ccc([N+](=O)[O-])o1 is ____.
Ans: 104

Q: Data request, read-out GFP response, % of DMSO, for CN1C(=O)C(=Cc2ccc(Sc3ccccc3)o2)C(=O)N(C)C1=S
Ans: 99.3

Q: Using the record for COc1ccc(N2C(=O)/C(=C/c3ccco3)C(=O)NC2=S)cc1 , report its GFP response, % of DMSO.
Ans: 100

Q: What does the data say about its GFP response, % of DMSO? Entry: O=C(O)c1[nH]c(=O)[nH]c(=O)c1F
Ans: 102

Q: I'd like to know its GFP response, % of DMSO. The compound in question is O=C1CN=C(c2ccccc2F)c2cc(Cl)ccc2N1
Ans: 98

Q: Which GFP response, % of DMSO is listed for N#CC(C#N)=Cc1ccc(N2CCCC2)cc1 ?
Ans: 109

Q: Sample CCCCn1c(=O)c(C(=O)Nc2ccsc2C(=O)OC)c(O)c2ccccc21 — what was its GFP response, % of DMSO?
Ans: 102

---

target: Lethal factor (Bacillus anthracis) (UniProt P15917); assay: Lethal factor protease inhibitors, Bacillus anthracis, multiplex microsphere cleavage assay, validation set (AID 588461); settings: flow cytometry, at 10 µM, stronger effect = higher value
Recorded inhibition by entry
Just the number please, in %, no unit attached.

Guide cases for inhibition, answers given:
query-smiles: CS(=O)(=O)Oc1ccc2c(c1)O/C(=C\C=C\c1ccccc1)C2=O
inhibition, %: 25
//
query-smiles: Cc1cc(Cl)cc2c1NC(=O)[C@]21[C@@H]2C(=O)N(Cc3ccccc3)C(=O)[C@@H]2[C@@H]2CCCN21
inhibition, %: 2.3
//
query-smiles: C[C@]12CCC(=O)C[C@@H]1CC[C@@H]1[C@@H]2CC[C@]2(C)C=CC[C@@H]12
inhibition, %: -1.3
//
query-smiles: O=C1[C@@H]2CSCN2C(=O)CN1Cc1ccc(F)cc1
inhibition, %: 3.4

Below: the item to evaluate.
Q: Given the entry COc1ccc2c(c1)c(=O)oc1cc3occ(C(C)(C)C)c3cc12 , report its measured inhibition.
Ans: 6.9

---

target: Lethal factor (Bacillus anthracis) (UniProt P15917); test: Lethal factor protease inhibitors, Bacillus anthracis, multiplex microsphere cleavage assay, validation set (AID 588461); settings: flow cytometry, at 10 µM, stronger effect = higher value
inhibition listing for selected molecules.
I only need the number, in %, no unit after it.

These recorded examples may help you get a feel for the data.
molecule: NCCc1ccc(O)cc1
study-system: Lethal factor (Bacillus anthracis) (UniProt P15917)
inhibition, %: -8.1
//
molecule: C1COC(NC(C2CC2)C2CC2)=N1
study-system: Lethal factor (Bacillus anthracis) (UniProt P15917)
inhibition, %: -5
//
molecule: CCOC(=O)c1cnc2ccccc2c1NCCO
study-system: Lethal factor (Bacillus anthracis) (UniProt P15917)
inhibition, %: 5.8

Q: What value of inhibition has been reported for the following molecule? Cc1coc2cc3oc(=O)c(CCC(=O)O)c(C)c3cc12
Ans: -2.2

Q: What value of inhibition has been recorded for this entry: CC(=O)OCC(=O)[C@@]12OC3(CCCC3)O[C@@H]1C[C@H]1[C@@H]3CCC4=CC(=O)C=C[C@]4(C)[C@@]3(F)[C@@H](O)C[C@@]12C
Ans: -0.7

Q: Which inhibition reading was recorded for the molecule Nc1ccc(S(=O)(=O)NC(=O)c2ccccc2)cc1 ?
Ans: -2.7

---

target: Lethal factor (Bacillus anthracis) (UniProt P15917); assay: Lethal factor protease inhibitors, Bacillus anthracis, multiplex microsphere cleavage assay, validation set (AID 588461); settings: flow cytometry, at 10 µM, stronger effect = higher value
measurement-label: inhibition (%)
Write the answer as a number in %, unit excluded.

Field: example entries. Status: answers known.
molecule: NC(=O)c1cccnc1
output-unit: %
reported-result: 3
--
molecule: O=C(O)c1ccc(C(=O)C(=O)c2ccccc2)cc1
output-unit: %
reported-result: -6.8
--
molecule: COc1ccc(NC(=S)NCCc2c[nH]c3ccccc23)cc1
output-unit: %
reported-result: 0.4
--
molecule: CS(=O)(=O)c1cccc(C(=O)Oc2ccccc2)c1
output-unit: %
reported-result: 4.6
--
molecule: CCN(CC)CCOC(=O)C1(C2CCCCC2)CCCCC1
output-unit: %
reported-result: -2.4
--
molecule: CC(=O)Oc1cc2oc(=O)cc(C)c2cc1OC(C)=O
output-unit: %
reported-result: 1.8

Q: May I ask what inhibition has been recorded for CC(=O)NCCCCCCNC(C)=O ?
Ans: 10.8

Q: Need inhibition, item CC1(C)CC(=O)c2cnc(NC(=O)C3CCCC3)nc2C1
Ans: -3.2

Q: Given C#CCOc1ccc2c(C)cc(=O)oc2c1 , state its recorded inhibition.
Ans: 4.6

---

target: Botulinum neurotoxin type A (Clostridium botulinum) (UniProt P0DPI0); experiment: BoNT/A light chain protease inhibitors, biochemical, multiplex microsphere flow cytometry, validation set (AID 588460); settings: at 10 µM, stronger effect = higher value
measurement-label: inhibition (%)
API: value field is a number in %; no unit string.

Examples with answers:
compound: O=[N+]([O-])c1cccc2cn[nH]c12
study-system: Botulinum neurotoxin type A (Clostridium botulinum) (UniProt P0DPI0)
inhibition (%): 3

compound: COc1cccc(C2CCCN2Cc2nc(CCC(C)C)no2)c1 (stereo unspecified)
study-system: Botulinum neurotoxin type A (Clostridium botulinum) (UniProt P0DPI0)
inhibition (%): -0.8

compound: CC(COc1ccccc1)N(CCCl)Cc1ccccc1 (stereo unspecified)
study-system: Botulinum neurotoxin type A (Clostridium botulinum) (UniProt P0DPI0)
inhibition (%): -2.7

compound: C=C1C2(C(=O)Nc3ccc(SC(F)F)cc3)CCC(C2)C1(C)C (stereo unspecified)
study-system: Botulinum neurotoxin type A (Clostridium botulinum) (UniProt P0DPI0)
inhibition (%): -0.9

compound: O=C(NCCc1c[nH]c2ccccc12)OCCSS(=O)(=O)O
study-system: Botulinum neurotoxin type A (Clostridium botulinum) (UniProt P0DPI0)
inhibition (%): -0.2

compound: CCOC(=O)c1cnc2ccccc2c1NCCO
study-system: Botulinum neurotoxin type A (Clostridium botulinum) (UniProt P0DPI0)
inhibition (%): 0

Q: Need inhibition of NC(=O)[C@@H]1[C@@H]2C(=O)N(c3ccc(F)cc3)C(=O)[C@@H]2[C@H]2C=Cc3ccccc3N21 , thanks.
Ans: 1.5

Q: Would you mind telling me what inhibition value was observed for CCOC(=O)C1=C[C@]2(CC)CCCN3CCc4c(n1c1ccccc41)[C@@H]32 ?
Ans: -0.9

Q: Could you share which inhibition value was measured for O=C(CC(C(=O)O)c1c[nH]c2ccccc12)c1ccccc1 (stereo unspecified) ?
Ans: 2

Q: Which inhibition value belongs to CCOC(=O)c1c(C)oc2c1C(=O)c1ccccc1C2=O ?
Ans: 1.4

Q: Data request, read-out inhibition, for COc1cc(CNCCc2c[nH]c3ccccc23)cc(Cl)c1OCC(N)=O
Ans: 0
